B1: library; a variant is named by its letters at N, in order (parent)
chain: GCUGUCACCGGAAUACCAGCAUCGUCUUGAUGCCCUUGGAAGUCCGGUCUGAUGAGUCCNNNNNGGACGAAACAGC

variants of: B1; test: normalized RNA/DNA level with ligand (relative to sTRSVctl = 100) (log10 (% of sTRSVctl)); higher = less ribozyme self-cleavage, higher mRNA level; settings: ligand concentration (+) RNA-Seq: 5 mM, HEK293T, reporter: mCherry (pCS4076), ligand present: yes
Measured metric: normalized RNA/DNA level with ligand (log10)
Could you respond with only the numeric value?

construct_sequence="GCUGUCACCGGAAUACCAGCAUCGUCUUGAUGCCCUUGGAAGUCCGGUCUGAUGAGUCCACGAGGGACGAAACAGC [ACGAG]" number=2.05
construct_sequence="GCUGUCACCGGAAUACCAGCAUCGUCUUGAUGCCCUUGGAAGUCCGGUCUGAUGAGUCCCCGCUGGACGAAACAGC [CCGCU]" number=2.09
construct_sequence="GCUGUCACCGGAAUACCAGCAUCGUCUUGAUGCCCUUGGAAGUCCGGUCUGAUGAGUCCUCCGAGGACGAAACAGC [UCCGA]" number=2.12
construct_sequence="GCUGUCACCGGAAUACCAGCAUCGUCUUGAUGCCCUUGGAAGUCCGGUCUGAUGAGUCCAUGCAGGACGAAACAGC [AUGCA]" number=2.02
construct_sequence="GCUGUCACCGGAAUACCAGCAUCGUCUUGAUGCCCUUGGAAGUCCGGUCUGAUGAGUCCGUUUGGGACGAAACAGC [GUUUG]" number=1.96

Short answer for GCUGUCACCGGAAUACCAGCAUCGUCUUGAUGCCCUUGGAAGUCCGGUCUGAUGAGUCCAGGACGGACGAAACAGC [AGGAC] : normalized RNA/DNA level with ligand (log10) was 1.97

Short answer for GCUGUCACCGGAAUACCAGCAUCGUCUUGAUGCCCUUGGAAGUCCGGUCUGAUGAGUCCAAAGCGGACGAAACAGC [AAAGC] : normalized RNA/DNA level with ligand (log10) was 2.03

Short answer for GCUGUCACCGGAAUACCAGCAUCGUCUUGAUGCCCUUGGAAGUCCGGUCUGAUGAGUCCAUUGUGGACGAAACAGC [AUUGU] : normalized RNA/DNA level with ligand (log10) was 2.04

Short answer for GCUGUCACCGGAAUACCAGCAUCGUCUUGAUGCCCUUGGAAGUCCGGUCUGAUGAGUCCAAUUUGGACGAAACAGC [AAUUU] : normalized RNA/DNA level with ligand (log10) was 1.98
